- target-desc: T1, Human GDF15 Fc (human) (UniProt Q99988)
- T1 sequence (chain, biotinylated (EZ-Link Sulfo-NHS-Biotinylation Kit) where printed as biotinylated): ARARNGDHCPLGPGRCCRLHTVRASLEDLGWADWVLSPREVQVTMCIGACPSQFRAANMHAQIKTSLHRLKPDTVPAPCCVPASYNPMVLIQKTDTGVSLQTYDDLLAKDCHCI
- method-notes: SPR Biacore, Fab monovalent
readout-name: log10 of koff (log10 of the value in s⁻¹)
Scale type: logarithmic (base 10). Underlying koff unit: s⁻¹.

Using the record for Clone T Fab (Fab, V domains shown) VH: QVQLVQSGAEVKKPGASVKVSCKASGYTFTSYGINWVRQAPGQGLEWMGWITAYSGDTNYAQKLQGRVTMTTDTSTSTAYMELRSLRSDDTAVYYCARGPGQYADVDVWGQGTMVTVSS VL: DIQMTQSPSSVSASVGDRVTITCRASQGISSWLAWYQQKPGKAPKLLIYAASSLQSGVPSRFSGSGSGTDFTLTISSLQPEDFATYYCQQASQFPITFGGGTKVEIK , report its log10 of koff.
-4.34

Next binder up: Clone K Fab (Fab, V domains shown) VH: QVQLVQSGAEVKKPGASVKVSCKASGYTFTNEGISWVRQAPGQGLEWMGWISAYTADTFYAQKLQGRVTMTTDTSTSTAYMELRSLRSDDTAVYYCARTRHDTSGLRFDYWGQGTLVTVSS VL: DIQMTQSPSSVSASVGDRVTITCRASQGIDSWLAWYQQKPGKAPKLLIYAASSLQSGVPSRFSGSGSGTDFTLTISSLQPEDFATYYCQQVHSFPITFGGGTKVEIK
-2.95

Next binder up: Clone P Fab (Fab, V domains shown) VH: QVQLVQSGAEVKKPGATVKVSCKASGYTFDSYGIHWVRQAPGQGLEWMGWITAYSGDTVYAQKLQGRVTMTTDTSTSTAYMELRSLRSDDTAVYYCARESGQTSSALGPWGQGTLVTVSS VL: DIQMTQSPSSVSASVGDRVTITCRASQGISRWLAWYQQKPGKAPKLLIYAASSLQSGVPSRFSGSGSGTDFTLTISSLQPEDFATYYCQQGASFPLTFGGGTKVEIK
-2.68

Next binder up: Clone S Fab (Fab, V domains shown) VH: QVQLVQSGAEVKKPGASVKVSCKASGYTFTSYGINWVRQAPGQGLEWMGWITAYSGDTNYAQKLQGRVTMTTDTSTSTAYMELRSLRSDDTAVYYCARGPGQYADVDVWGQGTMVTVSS VL: DIQLTQSPSSVSASVGDRVTITCRASQGISPWLAWYQQKPGKAPKLLIYAASSLQSGVPSRFSGSGSGTDFTLTISSLQPEDFATYYCQQANSFPITFGGGTKVEIK
-4.31

Next binder up: Clone L Fab (Fab, V domains shown) VH: QVQLVQSGAEVKKPGASVKVSCKASGYTFASYDIIWVRQAPGQGLEWMGWISALSGDTVYAQKLQGRVTMTTDTSTSTAYMELRSLRSDDTAVYYCARTRHDTSGIRFDYWGQGTLVTVSS VL: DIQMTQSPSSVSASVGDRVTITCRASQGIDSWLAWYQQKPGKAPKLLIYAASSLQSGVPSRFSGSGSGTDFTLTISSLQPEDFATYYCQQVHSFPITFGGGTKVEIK
-3.24
